- TARGET OF ASSAY: T1, PUF4 RNA-binding domain (Saccharomyces cerevisiae, UniProt P25339 537-888)
- T1 sequence: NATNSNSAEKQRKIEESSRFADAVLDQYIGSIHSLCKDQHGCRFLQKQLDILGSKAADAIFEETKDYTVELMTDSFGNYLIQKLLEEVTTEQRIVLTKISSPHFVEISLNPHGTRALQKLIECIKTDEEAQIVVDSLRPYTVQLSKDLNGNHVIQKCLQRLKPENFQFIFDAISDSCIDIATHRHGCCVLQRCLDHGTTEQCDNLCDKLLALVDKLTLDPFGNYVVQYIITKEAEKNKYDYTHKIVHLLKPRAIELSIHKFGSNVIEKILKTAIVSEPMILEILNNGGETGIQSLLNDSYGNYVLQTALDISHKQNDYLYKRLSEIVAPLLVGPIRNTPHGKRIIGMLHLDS
- TEST SUMMARY: Mg; RNA-MaP; 20 mM Na-HEPES pH 7.4, 30 mM KOAc, 0.75 mM MgCl2, 0.1% Tween-20, 5% glycerol, 0.1 mg/mL BSA, 2 mM DTT; 25 C; 0.0125-409.6 nM protein
- RUN PARAMETERS: tags: N-His6-TEV cleaved; C-SNAP kept, Cy3B-labelled; label: tethered on chip by stalled RNA polymerase
pKd: −log10 of the molar value.
QUANTITY: pKd

Example results:
>>> print(df.to_string())
                                     binder  endpoint_value
0  ACAAACCGACACUUAUUACUACAAAC (ssRNA) [Id_ii_S3_P5E.4_K5.3_C5.2_[T-1G]_H5.3_A5.1_F5.1_T5.2_[T11C]_[A12T]]          < 5.64
1  ACAAACUAAAUUAUUAACAAAC (ssRNA) [Ib_S3_P5E.1_K5.1_C5.1_H5.1_[G2A]_[T3A]_A5.1_F5.1_T5.1]          < 5.64

Below: the item to evaluate.
For this binder ( ACAAACAGACACUUAUUACCACAAAC (ssRNA) [Id_ii_S3_P5E.4_K5.3_C5.2_[C-2A]_[T-1G]_H5.3_A5.1_F5.1_T5.2_[T11C]_[A12C]] ), measured pKd is < 5.64
